System: RARg homodimer (NR concentration 270 nM)
Assay: PBM binding z-score (relative to random genomic background probes); higher = stronger binding; sequences stand for … in GC…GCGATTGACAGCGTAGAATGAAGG
Use MET when the recorded PBM binding z-score is no lower than 2; use NOT MET when it is lower.

>>> answer_label("TGAATGAGGTTAATGATCAGGGAACGTGGCGTCG")
"NOT MET"
>>> answer_label("CGTACTGGGCCAAAGGTCATTGATTCCAATGCTC")
"MET"
>>> answer_label("CCTTCTGGGCCAAGGTCATTGATCAGTCAAAGCA")
"MET"
>>> answer_label("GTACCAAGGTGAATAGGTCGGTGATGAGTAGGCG")
"NOT MET"
>>> answer_label("CCTACTGGGCGAAAAAGGTCATTGATGCCGATAA")
"MET"
>>> answer_label("ATCTCTGGGTAACAAGTTCAGTGAAAGAGAGGAC")
"NOT MET"
>>> answer_label("TAGCGTAGGTCATGCGGGCCAGTATAGTGTCGGC")
"MET"
>>> answer_label("TCTTGTAGATCAACAGGAGGTCAAGAAAGATCGA")
"MET"
>>> answer_label("CGTCCAAGGTCATAGGAGGTCAGTGATGACAGAT")
"MET"
>>> answer_label("CAAACTAGGTCACGGAGGTCAAAGTCCGTGCGTA")
"MET"
>>> answer_label("ATATGTAGGTTTTCGGGTCATTCAGTTTGCGCAT")
"NOT MET"
>>> answer_label("ATCTCTAGGTATAGATAGTTCAGTGAATGCAAAT")
"NOT MET"
>>> answer_label("ACAGACAGGTGATGAAGGTAATTCAGGCTATCAT")
"NOT MET"
>>> answer_label("TACCCTAGGTCAGATCGGGCCAGTATACGCTATA")
"MET"

====

Form field: PBM binding z-score (one value per entry).
Test system: PPARg:RXRa 270nM:90nM, anti-RXR (NR concentration 270 nM, RXRa partner concentration 90 nM)
Test: PBM binding z-score (relative to random genomic background probes); higher = stronger binding; sequences stand for … in GC…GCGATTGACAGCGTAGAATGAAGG
quantity-measured: PBM binding z-score

>>> value_measured("ATATGTAGTTTAGCTGGGGTCATTCAGACTAGGC")
2.42
>>> value_measured("ATATGTGGGTTAGCTGGGGTCATTCAGACTAGGC")
4.9
>>> value_measured("CAAACTAGGTCACCGGAAGGTCACAGTCCGCATG")
7.71
>>> value_measured("CGAACTAGGTCTTTGACAGGACAGTGAATAGTAA")
0.585
>>> value_measured("CTCGATAGGTCGGTTGAGGTGAGTATACGGATAA")
-0.187
>>> value_measured("ACAGACAGGTGATGAAGGTTACTCAGGCTATCAT")
0.381
>>> value_measured("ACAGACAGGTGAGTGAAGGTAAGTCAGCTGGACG")
-0.129
>>> value_measured("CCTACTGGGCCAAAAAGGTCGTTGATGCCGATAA")
1.81
>>> value_measured("CGTCGAAGGTCATAGGAGGTCAGTGAAGACAGAT")
6.05
>>> value_measured("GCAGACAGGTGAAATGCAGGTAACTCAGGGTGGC")
0.196
>>> value_measured("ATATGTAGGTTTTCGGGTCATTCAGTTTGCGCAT")
4.14
>>> value_measured("ATATGTAGGTTAGCTGGGGTTATTCAGACTAGGC")
3.82
>>> value_measured("CGAACTAGGTCAAGGACTGTGAATCTCCGCACGC")
6.47
>>> value_measured("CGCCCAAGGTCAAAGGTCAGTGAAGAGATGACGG")
8.16
>>> value_measured("AGAATGAGGTTATACGTAGATCAGAGAAGAAAGT")
2.1
>>> value_measured("TCTTATAGATCAAGCAGGTTAAGAAAGCCTGAGT")
1.62
>>> value_measured("TCCTGTAGATCAATAGAGGTTAAGAAAGTGCGCT")
1.63
>>> value_measured("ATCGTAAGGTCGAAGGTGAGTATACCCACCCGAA")
3.7
>>> value_measured("CCTTACAGGTCACTGACAGGTTATAGCATTTGGA")
4.44
>>> value_measured("TCTAGTTGGTGAAAGGTCACACACTCGAAATGCG")
9.75
>>> value_measured("CAAACTAGGTCACCGGACGGTCAAAGTCCGCATG")
7.27
>>> value_measured("TCATATAGGTTATACAGGTGAAAGTCGGCATCTA")
3.17
>>> value_measured("TCATATAGGTAGAAGGTGAAAGTCGGTGTGGTAA")
6.84
>>> value_measured("TCGAGTACGTTAGTCGGGGCATTCAGCCAACATA")
0.223
>>> value_measured("CAAACTAGGTCAAGGTCAAAGCCGGTTTGTGCCA")
8.02
>>> value_measured("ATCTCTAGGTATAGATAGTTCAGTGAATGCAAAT")
0.289
>>> value_measured("TCGAGTAGGGTAGGGGCATTCAGAATGGCGTCGA")
1.82
>>> value_measured("CCTACTGGGCCAAAAAGGTTATTGATGCCGATAA")
1.85
>>> value_measured("CCTAGTTGGTCAGGAGGTCATACACCGGATATGA")
3.82
>>> value_measured("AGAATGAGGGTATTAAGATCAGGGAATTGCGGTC")
0.28
>>> value_measured("CCTACTGGGCCAAAGATCATTGATTCCAATGCTC")
7.31
>>> value_measured("ACTAGCAGGGCAAGGGTCACTCAAGATTAGTCCG")
7.48
>>> value_measured("CCAGACAGGTGATAGGTAACTCAGTCTGGTACGC")
2.56
>>> value_measured("ACTAGTTGGTCAGCTGAGGTCACTCACAATTCGG")
1.68
>>> value_measured("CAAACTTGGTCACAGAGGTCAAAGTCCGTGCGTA")
5.07
>>> value_measured("GCTGCCAGGTCAGGTTGGTCAGCTAACGGGTACG")
0.752
>>> value_measured("TCTTGTAGATCACCAGGAGGTTAAGAAAGATCGA")
1.19
>>> value_measured("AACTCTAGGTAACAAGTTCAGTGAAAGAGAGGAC")
1.72
>>> value_measured("TAGCCTAGGTCATGCGGACCAGTATAGTGTCGGC")
2.5
>>> value_measured("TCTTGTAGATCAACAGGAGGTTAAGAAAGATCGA")
1.2

====

Each entry below lists one item and its recorded PBM binding z-score value.
System: LXRb homodimer (NR concentration 270 nM)
Assay: PBM binding z-score (relative to random genomic background probes); higher = stronger binding; sequences stand for … in GC…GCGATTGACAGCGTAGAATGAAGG
quantity-measured: PBM binding z-score

>>> value_measured("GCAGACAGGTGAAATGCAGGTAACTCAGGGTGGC")
-0.898
>>> value_measured("CAAGCTAGGTCAAGGTCAAAGTCGGTTTGTGCCA")
1.37
>>> value_measured("GCTATTTGTTGAAAGGGCAACCGAATGATTCTCG")
0.261
>>> value_measured("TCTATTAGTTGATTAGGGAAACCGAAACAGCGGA")
0.852
>>> value_measured("TCTAGCCGGCCAGAGGGTCACTCAAGAGGTACGG")
-1.11
>>> value_measured("GCTAGCAGGCCATTTGGGTCACTCATTGACGGGC")
-0.903
>>> value_measured("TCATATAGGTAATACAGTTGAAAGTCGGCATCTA")
0.422
>>> value_measured("ACTCGGAGGACAAAGGTCAGTGCTACGCCAGTGA")
0.443
>>> value_measured("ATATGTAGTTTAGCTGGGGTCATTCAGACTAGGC")
1.66
>>> value_measured("ATCTCTAGGTAAAAGTTCATTGAATCCCGAGGAT")
1.06
>>> value_measured("CCAGACAGGTGAGAACGTAACTCAGCCTCGATTA")
-0.463
>>> value_measured("ATCGAAAGGTCGACGTGGTGAGTATACACCGTTT")
0.332
>>> value_measured("CCTAGCAGGCCAATCTGGGTAACTCAAGGCTTGA")
-0.796
>>> value_measured("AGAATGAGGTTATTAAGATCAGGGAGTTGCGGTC")
0.183
>>> value_measured("ATCTCGAGGTAACCAAGTTCAGTGAATGCCGAAC")
-0.105
>>> value_measured("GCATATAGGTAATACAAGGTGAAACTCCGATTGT")
-0.38
>>> value_measured("ACAGACTGGTGAGTGAAGGTAACTCAGCTGGACG")
-0.871
>>> value_measured("ACAGACAGGTGATGAAGGTAACTTAGGCTATCAT")
-0.119
>>> value_measured("TCATATATGTAAAGGTGAAAGTCGAACGATATGA")
-0.14
>>> value_measured("ATATGTAGGTTAAGGGTCATTCATGTTGGTTCGC")
1.33
>>> value_measured("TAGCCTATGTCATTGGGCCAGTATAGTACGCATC")
-0.648
>>> value_measured("GGAACGAGGGCAAAGTTGGTAGCATCTGTCGACG")
-0.429
>>> value_measured("ATATTTAGGTTATCGGGTCATTCAGTTTGCGCAT")
2.37
>>> value_measured("CCAGAGAGGTGAAAGGTAACTCAGTCTGGTACGC")
-0.316
>>> value_measured("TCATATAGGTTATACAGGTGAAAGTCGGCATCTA")
0.833
>>> value_measured("TATACAGGGTCAAAGGCGAGAGTACGAATGTCGA")
2.51
>>> value_measured("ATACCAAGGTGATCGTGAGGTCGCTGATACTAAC")
-0.474
>>> value_measured("CCTTACGGGCCAAGGTTATAGCACGGGTGGTACG")
-0.834
>>> value_measured("CCTACTGGGCCAAAAAGGTCCTTGATGCCGATAA")
-0.811
>>> value_measured("CCAGACAAGTGAAAGGTAACTCAGTCTGGTACGC")
-0.315
>>> value_measured("CTTACTGGGCCAAGGTCATTGATCAGTCAAAGCA")
0.239
>>> value_measured("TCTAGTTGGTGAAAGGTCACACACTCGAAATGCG")
1.6
>>> value_measured("TCATATAGGTAAACAAGTGAAAGTCCGTAAGTTA")
0.297
>>> value_measured("CCTTACGAGTCACTCCAGGTTATAGCATCGGAGT")
0.939
>>> value_measured("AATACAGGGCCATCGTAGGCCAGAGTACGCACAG")
-0.499
>>> value_measured("TCTAGTAGGTTAGTCGGGGCATTCAGCCAACATA")
0.412
>>> value_measured("GCTGCTTGGTCAACTGATGGTCAGCTAAAGCTCG")
-0.593
>>> value_measured("TAGCCTAGGTCATGGGCCAGTATACCACGCGAAC")
-0.333
>>> value_measured("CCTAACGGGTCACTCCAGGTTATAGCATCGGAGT")
0.101
>>> value_measured("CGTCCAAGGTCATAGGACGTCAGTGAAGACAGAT")
0.284
>>> value_measured("CGAACGAGGGTATGAGTTGATAGCAAATGCCGAT")
-0.567
>>> value_measured("TGTCAAAGTTCAATGGTAACGTAAGTATCCACAC")
0.934
>>> value_measured("TAGCCTAGGTCCTTGGGCCAGTATAGTACGCATC")
-1.16
>>> value_measured("TCTTGTAGATTAATAGAGGTTAAGAAAGTGCGCT")
0.623
>>> value_measured("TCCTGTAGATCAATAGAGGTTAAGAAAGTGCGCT")
0.0925
>>> value_measured("TATACAGGGTTAAAGGCCAGAGTACGAATGTCGA")
0.834
>>> value_measured("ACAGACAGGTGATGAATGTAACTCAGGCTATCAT")
-0.131
